test system: HSV-1 K26-GFP infected primary human skin cells; experiment: % change of HSV-1 GFP signal vs untreated infected cells; higher = less antiviral inhibition; details: 0.003 µM; cell type: primary keratinocytes; donor: 4; time (h post infection): 20
Reported % change of HSV-1 GFP signal values for a set of compounds
property measured: % change of HSV-1 GFP signal (%)

compound=CC1(C)CC(=O)c2c(C(F)(F)F)nn(-c3ccc(C(N)=O)c(N[C@H]4CC[C@H](O)CC4)c3)c2C1 target_of_assay="HSV-1 K26-GFP infected primary human skin cells" property_measured="% change of HSV-1 GFP signal" recorded_number=1.99
compound="COc1ccc(-c2nc(N3CCOCC3)c3sc(CN(C)c4ncc(C(=O)NO)cn4)cc3n2)cn1 [Fimepinostat]" target_of_assay="HSV-1 K26-GFP infected primary human skin cells" property_measured="% change of HSV-1 GFP signal" recorded_number=-14.2
compound=Nc1ccn([C@@H]2O[C@H](CO)[C@@H](O)C2(F)F)c(=O)n1 target_of_assay="HSV-1 K26-GFP infected primary human skin cells" property_measured="% change of HSV-1 GFP signal" recorded_number=0.292
compound=Cc1nc(N(C)C(=O)Cc2ccc(-c3ccccn3)cc2)sc1S(N)(=O)=O target_of_assay="HSV-1 K26-GFP infected primary human skin cells" property_measured="% change of HSV-1 GFP signal" recorded_number=10.5
compound=C=CC(=O)N1CC/C(=C\c2ccc(F)c([N+](=O)[O-])c2)C(=O)/C(=C/c2ccc(F)c([N+](=O)[O-])c2)C1 target_of_assay="HSV-1 K26-GFP infected primary human skin cells" property_measured="% change of HSV-1 GFP signal" recorded_number=-5.56
compound=Cc1cccc(C)c1N(CC(=O)Nc1ccc(-c2ncon2)cc1)C(=O)C1CCS(=O)(=O)CC1 target_of_assay="HSV-1 K26-GFP infected primary human skin cells" property_measured="% change of HSV-1 GFP signal" recorded_number=-0.75
compound="O=C(Nc1ccc([N+](=O)[O-])cc1Cl)c1cc(Cl)ccc1O [Niclosamide]" target_of_assay="HSV-1 K26-GFP infected primary human skin cells" property_measured="% change of HSV-1 GFP signal" recorded_number=-0.953
compound="CC(C)c1cnn2c(NCc3ccccc3-n3cccn3)nc(OC3CCCNC3)nc12 (stereo not given)" target_of_assay="HSV-1 K26-GFP infected primary human skin cells" property_measured="% change of HSV-1 GFP signal" recorded_number=-19.1
compound="O=C(/C=C\\n1cnc(-c2cc(C(F)(F)F)cc(C(F)(F)F)c2)n1)NNc1ccccn1 [Verdinexor]" target_of_assay="HSV-1 K26-GFP infected primary human skin cells" property_measured="% change of HSV-1 GFP signal" recorded_number=-10.8
compound="CC(=O)O[C@H]1C[C@H](O[C@H]2[C@@H](O)C[C@H](O[C@H]3[C@@H](O)C[C@H](O[C@H]4CC[C@@]5(C)[C@H](CC[C@@H]6[C@@H]5C[C@@H](O)[C@]5(C)[C@@H](C7=CC(=O)OC7)CC[C@]65O)C4)O[C@@H]3C)O[C@@H]2C)O[C@H](C)[C@H]1O[C@@H]1O[C@H](CO)[C@@H](O)[C@H](O)[C@H]1O [Lanatoside C]" target_of_assay="HSV-1 K26-GFP infected primary human skin cells" property_measured="% change of HSV-1 GFP signal" recorded_number=-0.172

* * *

Reported % change of HSV-1 GFP signal values for a set of molecules
system: HSV-1 K26-GFP infected primary human skin cells; test: % change of HSV-1 GFP signal vs untreated infected cells; higher = less antiviral inhibition; details: 0.003 µM; cell type: primary dermal fibroblasts; donor: 4; time (h post infection): 48
property measured: % change of HSV-1 GFP signal (%)

molecule=Nc1ccn([C@@H]2O[C@H](CO)[C@@H](O)C2(F)F)c(=O)n1 recorded_number=-2.11
molecule="O=C(/C=C\\n1cnc(-c2cc(C(F)(F)F)cc(C(F)(F)F)c2)n1)NNc1ccccn1 [Verdinexor]" recorded_number=-6.87
molecule=CC1(C)CC(=O)c2c(C(F)(F)F)nn(-c3ccc(C(N)=O)c(N[C@H]4CC[C@H](O)CC4)c3)c2C1 recorded_number=7.68
molecule=Cc1cccc(C)c1N(CC(=O)Nc1ccc(-c2ncon2)cc1)C(=O)C1CCS(=O)(=O)CC1 recorded_number=-8.69
molecule="COc1ccc(-c2nc(N3CCOCC3)c3sc(CN(C)c4ncc(C(=O)NO)cn4)cc3n2)cn1 [Fimepinostat]" recorded_number=-1.5
molecule=Cc1nc(N(C)C(=O)Cc2ccc(-c3ccccn3)cc2)sc1S(N)(=O)=O recorded_number=-0.451
molecule="O=C(Nc1ccc([N+](=O)[O-])cc1Cl)c1cc(Cl)ccc1O [Niclosamide]" recorded_number=-6.77

* * *

Reported % change of tdTomato fibroblast signal values for a set of compounds
test system: HSV-1 K26-GFP infected 3D skin equivalent; test: % change of tdTomato fibroblast signal relative to infected DMSO control; higher = higher signal (negative = inhibition / toxicity); details: 1.111111 µM; time (h post infection): 48; model: submerged
property measured: % change of tdTomato fibroblast signal (%)

compound=Cc1cccc(C)c1N(CC(=O)Nc1ccc(-c2ncon2)cc1)C(=O)C1CCS(=O)(=O)CC1 property_measured="% change of tdTomato fibroblast signal" readout_unit=% recorded_number=-5
compound="CC(=O)O[C@H]1C[C@H](O[C@H]2[C@@H](O)C[C@H](O[C@H]3[C@@H](O)C[C@H](O[C@H]4CC[C@@]5(C)[C@H](CC[C@@H]6[C@@H]5C[C@@H](O)[C@]5(C)[C@@H](C7=CC(=O)OC7)CC[C@]65O)C4)O[C@@H]3C)O[C@@H]2C)O[C@H](C)[C@H]1O[C@@H]1O[C@H](CO)[C@@H](O)[C@H](O)[C@H]1O [Lanatoside C]" property_measured="% change of tdTomato fibroblast signal" readout_unit=% recorded_number=-37.1
compound=Nc1ccn([C@@H]2O[C@H](CO)[C@@H](O)C2(F)F)c(=O)n1 property_measured="% change of tdTomato fibroblast signal" readout_unit=% recorded_number=-17.6
compound="CC(C)c1cnn2c(NCc3ccccc3-n3cccn3)nc(OC3CCCNC3)nc12 (stereo unspecified)" property_measured="% change of tdTomato fibroblast signal" readout_unit=% recorded_number=8.7
compound="O=C(/C=C\\n1cnc(-c2cc(C(F)(F)F)cc(C(F)(F)F)c2)n1)NNc1ccccn1 [Verdinexor]" property_measured="% change of tdTomato fibroblast signal" readout_unit=% recorded_number=-2.44
compound="O=C(Nc1ccc([N+](=O)[O-])cc1Cl)c1cc(Cl)ccc1O [Niclosamide]" property_measured="% change of tdTomato fibroblast signal" readout_unit=% recorded_number=-44.6

* * *

tested on: HSV-1 K26-GFP infected 3D skin equivalent; assay: % change of tdTomato fibroblast signal relative to infected DMSO control; higher = higher signal (negative = inhibition / toxicity); conditions: 0.041152 µM; time (h post infection): 48; model: submerged
Reported % change of tdTomato fibroblast signal values for a set of compounds
property measured: % change of tdTomato fibroblast signal (%)

compound="CC(C)c1cnn2c(NCc3ccccc3-n3cccn3)nc(OC3CCCNC3)nc12 (stereo unspecified)" target_of_assay="HSV-1 K26-GFP infected 3D skin equivalent" property_measured="% change of tdTomato fibroblast signal" recorded_number=7.31
compound=Cc1cccc(C)c1N(CC(=O)Nc1ccc(-c2ncon2)cc1)C(=O)C1CCS(=O)(=O)CC1 target_of_assay="HSV-1 K26-GFP infected 3D skin equivalent" property_measured="% change of tdTomato fibroblast signal" recorded_number=12
compound="CC(=O)O[C@H]1C[C@H](O[C@H]2[C@@H](O)C[C@H](O[C@H]3[C@@H](O)C[C@H](O[C@H]4CC[C@@]5(C)[C@H](CC[C@@H]6[C@@H]5C[C@@H](O)[C@]5(C)[C@@H](C7=CC(=O)OC7)CC[C@]65O)C4)O[C@@H]3C)O[C@@H]2C)O[C@H](C)[C@H]1O[C@@H]1O[C@H](CO)[C@@H](O)[C@H](O)[C@H]1O [Lanatoside C]" target_of_assay="HSV-1 K26-GFP infected 3D skin equivalent" property_measured="% change of tdTomato fibroblast signal" recorded_number=-1.16
compound="O=C(Nc1ccc([N+](=O)[O-])cc1Cl)c1cc(Cl)ccc1O [Niclosamide]" target_of_assay="HSV-1 K26-GFP infected 3D skin equivalent" property_measured="% change of tdTomato fibroblast signal" recorded_number=-8.01
compound="O=C(/C=C\\n1cnc(-c2cc(C(F)(F)F)cc(C(F)(F)F)c2)n1)NNc1ccccn1 [Verdinexor]" target_of_assay="HSV-1 K26-GFP infected 3D skin equivalent" property_measured="% change of tdTomato fibroblast signal" recorded_number=8.73
compound=Nc1ccn([C@@H]2O[C@H](CO)[C@@H](O)C2(F)F)c(=O)n1 target_of_assay="HSV-1 K26-GFP infected 3D skin equivalent" property_measured="% change of tdTomato fibroblast signal" recorded_number=-1.22

Reference source for all entries: the supplement of paper PMC12533247
